- Tested On: GLP-1R (Homo sapiens)
- Protocol Description: GLP-1R activation: cAMP increase in CHO cells stably expressing GLP-1R
- Type: cell-based
- Assay Setup: cAMP increase, CHO cells stably expressing GLP-1R, 10 point dose response, 30 minutes incubation; read-out: EC50
Below, each entry is listed alongside its reported EC50.

Compound	Value Unit	EC50
N#Cc1ccc(COc2cccc(-c3ccc(Cc4nc5ccc(C(=O)O)cc5n4CC4(CO)CC4)c(F)c3)n2)c(F)c1 [Example 375]	nM	5.46
COCCn1c(Cc2ccc(-c3cccc(OCc4ccc(C#N)cc4F)n3)cc2OC(F)(F)F)nc2ccc(C(=O)O)cc21 [Example 40]	nM	456
N#Cc1ccc(COc2cccc(-c3cc(F)c(Cc4nc5ccc(C(=O)O)cc5n4[C@@H]4CCC(F)(F)C4)cc3F)n2)c(F)c1 [Example 699]	nM	83.9
N#Cc1ccc(COc2cccc(-c3cc(F)c(Cc4nc5ccc(C(=O)O)cc5n4C[C@@H]4CCO4)cc3F)n2)c(F)c1 [Example 444]	nM	0.25
O=C(O)c1ccc2nc(Cc3cc(F)c(-c4cccc(OCc5ccc(C(F)F)cc5F)n4)cc3F)n(C[C@@H]3CCO3)c2c1 [Example 800]	nM	0.1
N#Cc1ccc(COc2nccc(-c3cc(F)c(Cc4nc5ccc(C(=O)O)cc5n4C[C@@H]4CCO4)cc3F)n2)c(F)c1 [Example 415]	nM	0.15
N#Cc1ccc(COc2cccc(-c3cc(F)c(Cc4nc5ccc(C(=O)O)cc5n4CCOC(F)F)cc3F)n2)c(F)c1 [Example 325]	nM	1.61

* * *

- Tested On: GLP-1R (Homo sapiens, UniProt P43220)
- Sequence (P43220 24-463): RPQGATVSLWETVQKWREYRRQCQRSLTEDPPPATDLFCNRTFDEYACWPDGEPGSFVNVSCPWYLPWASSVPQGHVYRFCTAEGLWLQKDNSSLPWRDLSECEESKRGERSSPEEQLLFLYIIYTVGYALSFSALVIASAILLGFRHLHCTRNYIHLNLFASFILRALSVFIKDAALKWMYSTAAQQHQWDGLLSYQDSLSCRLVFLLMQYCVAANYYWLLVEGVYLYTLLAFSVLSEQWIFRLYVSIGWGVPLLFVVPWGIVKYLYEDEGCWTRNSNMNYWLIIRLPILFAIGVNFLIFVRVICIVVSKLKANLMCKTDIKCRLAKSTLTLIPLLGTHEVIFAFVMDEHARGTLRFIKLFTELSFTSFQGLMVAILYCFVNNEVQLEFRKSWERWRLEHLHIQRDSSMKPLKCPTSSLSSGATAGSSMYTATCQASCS
- Protocol Description: GLP-1R activation: cAMP increase in CHO cells stably expressing GLP-1R
- Type: cell-based
- Assay Setup: cAMP increase, CHO cells stably expressing GLP-1R, 10 point dose response, 30 minutes incubation; read-out: EC50
pEC50: −log10 of the molar value.

Compound	pEC50
COCCn1c(Cc2ccc(-c3ccccc3OCc3ccc(C#N)cc3F)cc2F)nc2ccc(C(=O)O)cc21 [Example 182]	6.35
COCCn1c(Cc2ccc(-c3ncc(F)c(OCc4ccc(C#N)cc4F)n3)c(F)c2F)nc2ccc(C(=O)O)cc21 [Example 169]	8.37
N#Cc1ccc(COc2nccc(-c3cc(F)c(Cc4nc5ccc(C(=O)O)nc5n4CC4(CF)CC4)c(F)c3)n2)c(F)c1 [Example 298]	8.32
N#Cc1ccc(COc2cccc(-c3cc(F)c(Cc4nc5ccc(C(=O)O)cc5n4Cc4cnccn4)cc3F)n2)c(F)c1 [Example 310]	7.79

* * *

- Tested On: GLP-1R (Homo sapiens)
- Protocol Description: GLP-1R activation: cAMP increase in CHO cells stably expressing GLP-1R
- Format: cell-based
- Assay Setup: cAMP increase, CHO cells stably expressing GLP-1R, 10 point dose response, 30 minutes incubation; read-out: EC50

Compound	Tested On	EC50 / nM
N#Cc1ccc(COc2cccc(-c3cc(F)c(Cc4nc5ccc(C(=O)O)cc5n4CC45CC(CO4)C5)cc3F)n2)c(F)c1 [Example 574]	GLP-1R (Homo sapiens)	0.63
COCCn1c(Cc2ccc(-c3cccc(OCc4ccc(C#N)cc4F)n3)cc2-c2ccsc2)nc2ccc(C(=O)O)cc21 [Example 176]	GLP-1R (Homo sapiens)	273
COCCn1c(Cc2cc(F)c(-c3cccc(OCc4ccc(CC#N)cc4)n3)cc2F)nc2ccc(C(=O)O)cc21 [Example 817]	GLP-1R (Homo sapiens)	10.3
COCCn1c(Cc2cc(F)c(-c3cccc(OCc4ccc(C)nc4)n3)cc2F)nc2ccc(C(=O)O)cc21 [Example 811]	GLP-1R (Homo sapiens)	3.57
N#CCC1(Cn2c(Cc3cc(F)c(-c4ncc(F)c(OCc5ccc(C#N)cc5F)n4)cc3F)nc3ccc(C(=O)O)cc32)CC1 [Example 133]	GLP-1R (Homo sapiens)	0.26
N#Cc1ccc(COc2cccc(-c3cc(F)c(Cc4nc5ccc(C(=O)O)cc5n4CC4(CF)CC4)cc3F)n2)c(F)c1 [Example 429]	GLP-1R (Homo sapiens)	0.61
N#Cc1ccc(COc2cccc(-c3ccc(Cc4nc5ccc(C(=O)O)cc5n4CC4(n5cncn5)CC4)c(F)c3)n2)c(F)c1 [Example 313]	GLP-1R (Homo sapiens)	3.25
COc1cc(Cl)ccc1COc1nccc(-c2cc(F)c(Cc3nc4ccc(C(=O)O)cc4n3CC3(CC#N)CC3)cc2F)n1 [Example 446]	GLP-1R (Homo sapiens)	0.15
NC(=O)c1ccc(COc2cccc(-c3cc(F)c(Cc4nc5ccc(C(=O)O)cc5n4C[C@@H]4CCO4)cc3F)n2)c(OC(F)F)n1 [Example 857]	GLP-1R (Homo sapiens)	0.35
N#Cc1ccc(COc2cccc(-c3cc(F)c(Cc4nc5ccc(C(=O)O)cc5n4CC4(F)COC4)cc3F)n2)c(F)c1 [Example 270]	GLP-1R (Homo sapiens)	1.82
COCCn1c(Cc2cc(F)c(-c3cccc(OCc4ccc(C(F)(F)F)c(F)c4F)n3)cc2F)nc2ccc(C(=O)O)cc21 [Example 872]	GLP-1R (Homo sapiens)	5.09
CN1CCO[C@@H](Cn2c(Cc3cc(F)c(-c4cccc(OCc5ccc(C#N)cc5F)n4)cc3F)nc3ccc(C(=O)O)cc32)C1 [Example 651]	GLP-1R (Homo sapiens)	2790
COCCn1c(Cc2cnc(-c3cccc(OCc4ccc(C#N)cc4F)n3)nc2)nc2ccc(C(=O)O)cc21 [Example 44]	GLP-1R (Homo sapiens)	212
COCCn1c(Cc2ccc(-c3nc(OCc4ccc(C#N)cc4F)ccc3F)cc2F)nc2ccc(C(=O)O)cc21 [Example 91]	GLP-1R (Homo sapiens)	2630
CO[C@H]1COC[C@H]1n1c(Cc2cc(F)c(-c3cccc(OCc4ccc(C#N)cc4F)n3)cc2F)nc2ccc(C(=O)O)cc21 (single isomer, unassigned) [Example 890]	GLP-1R (Homo sapiens)	0.49
O=C(O)c1ccc2nc(Cc3cc(F)c(-c4ccc(F)c(OCc5ccc(C(F)F)cc5F)n4)cc3F)n(CC34CC(CO3)C4)c2c1 [Example 772]	GLP-1R (Homo sapiens)	0.61
O=C(O)c1ccc2nc(Cc3cc(F)c(-c4cccc(OCc5ccc(C(F)F)cc5F)n4)cc3F)n(Cc3ccon3)c2c1 [Example 609]	GLP-1R (Homo sapiens)	0.15
COCCn1c(Cc2c(F)cc(-c3csnc3OCc3ccc(Cl)cc3F)cc2F)nc2ccc(C(=O)O)cc21 [Example 72]	GLP-1R (Homo sapiens)	23.8
COCCn1c(Cc2ncc(-c3cccc(OCc4ccc(C#N)cc4F)n3)cc2F)nc2ccc(C(=O)O)cc21 [Example 60]	GLP-1R (Homo sapiens)	30
COCC(COC)n1c(Cc2cc(F)c(-c3cccc(OCc4ccc(C#N)cc4F)n3)cc2F)nc2ccc(C(=O)O)cc21 [Example 732]	GLP-1R (Homo sapiens)	169
Cn1ncnc1Cn1c(Cc2cc(F)c(-c3cccc(OCc4ccc(C#N)cc4F)n3)cc2F)nc2ccc(C(=O)O)cc21 [Example 578]	GLP-1R (Homo sapiens)	13.8
N#Cc1ccc(COc2nccc(-c3cc(F)c(Cc4nc5ccc(C(=O)O)cc5n4CC4(CF)CC4)c(F)c3)n2)c(F)c1 [Example 317]	GLP-1R (Homo sapiens)	1.05
N#CCC1(Cn2c(Cc3ccc(-c4ccc(F)c(OCc5ccc(C#N)cc5F)n4)cc3F)nc3c(F)cc(C(N)=O)cc32)CC1 [Example 597]	GLP-1R (Homo sapiens)	13.8
COCCn1c(Cc2ccc(-c3cccc(OCc4cccc5ncsc45)n3)cc2F)nc2ccc(C(=O)O)cc21 [Example 148]	GLP-1R (Homo sapiens)	2050
COCCn1c(Cc2ccc(-c3cccc(OCc4ccc(C#CC5CC5)cc4F)n3)cc2F)nc2ccc(C(=O)O)cc21 [Example 843]	GLP-1R (Homo sapiens)	17.2
COCCn1c(Cc2ccc(-c3nccc(OCc4ccc(C#N)cc4F)n3)cc2F)nc2ccc(C(=O)O)cc21 [Example 25]	GLP-1R (Homo sapiens)	25.9
COC1(Cn2c(Cc3cc(F)c(-c4cccc(OCc5ccc(C#N)cc5F)n4)cc3F)nc3ccc(C(=O)O)cc32)CC1 [Example 746]	GLP-1R (Homo sapiens)	0.87

Reference source: patent US11702404B2
